# Target System: Neuronal acetylcholine receptor; alpha3/beta4 (Homo sapiens, UniProt P30926+P32297)
# Sequence (P30926 whole entry): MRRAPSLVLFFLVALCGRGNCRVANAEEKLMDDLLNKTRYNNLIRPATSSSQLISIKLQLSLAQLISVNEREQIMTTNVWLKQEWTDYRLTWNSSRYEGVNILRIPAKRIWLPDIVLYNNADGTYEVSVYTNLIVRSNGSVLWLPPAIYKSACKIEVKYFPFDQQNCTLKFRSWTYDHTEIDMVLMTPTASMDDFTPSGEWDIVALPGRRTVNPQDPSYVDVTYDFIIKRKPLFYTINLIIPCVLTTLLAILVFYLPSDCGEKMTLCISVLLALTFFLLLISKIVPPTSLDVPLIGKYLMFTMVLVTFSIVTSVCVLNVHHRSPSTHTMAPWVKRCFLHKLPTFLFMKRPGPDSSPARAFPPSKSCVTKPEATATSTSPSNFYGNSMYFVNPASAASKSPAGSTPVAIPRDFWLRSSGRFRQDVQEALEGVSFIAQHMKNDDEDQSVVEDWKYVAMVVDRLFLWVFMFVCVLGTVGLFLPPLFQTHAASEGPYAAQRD
# Sequence (P32297 whole entry): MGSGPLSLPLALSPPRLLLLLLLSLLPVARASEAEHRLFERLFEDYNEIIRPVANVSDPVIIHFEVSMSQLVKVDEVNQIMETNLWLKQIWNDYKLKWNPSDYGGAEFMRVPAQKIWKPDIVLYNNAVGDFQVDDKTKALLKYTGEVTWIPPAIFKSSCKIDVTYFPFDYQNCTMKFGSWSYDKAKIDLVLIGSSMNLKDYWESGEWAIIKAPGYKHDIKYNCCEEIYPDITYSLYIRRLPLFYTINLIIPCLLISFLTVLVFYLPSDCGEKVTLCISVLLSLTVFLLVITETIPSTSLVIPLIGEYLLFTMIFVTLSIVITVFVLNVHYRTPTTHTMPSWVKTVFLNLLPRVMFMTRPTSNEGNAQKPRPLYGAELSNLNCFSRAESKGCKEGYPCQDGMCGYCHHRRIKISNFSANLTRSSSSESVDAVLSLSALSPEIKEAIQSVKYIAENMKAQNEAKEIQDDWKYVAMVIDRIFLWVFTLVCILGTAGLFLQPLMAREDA
# Assay Comment: Inhibitory activity against nicotinic acetylcholine receptor alpha3-beta4
# Format: protein-complex assay
Measurement Kind: IC50

[[record]]
molecule = "COc1cc2c3cc1Oc1cc(ccc1O)C[C@@H]1c4c(cc(OC)c(O)c4Oc4ccc(cc4)C[C@@H]3N(C)CC2)CC[N+]1(C)C"
measurement_kind = "IC50"
readout_value = "2 µM"

[[record]]
molecule = "C[N+](C)(C)CCCCCCCCCC[N+](C)(C)C"
measurement_kind = "IC50"
readout_value = "~1.7 µM"

[[record]]
molecule = "C[N+](C)(C)CCCCCC[N+](C)(C)C [HEXAMETHONIUM HYDROXIDE]"
measurement_kind = "IC50"
readout_value = "~1.7 µM"


====

# Target System: Neuronal acetylcholine receptor; alpha3/beta4 (Homo sapiens, UniProt P30926+P32297)
# Assay Comment: Effect on alpha3-beta4 neuronal nicotinic acetylcholine receptor-stimulated adrenal catecholamine secretion
# Format: functional
Measurement Kind: IC50

[[record]]
compound = "O=C(OCC1CCCN(CCCc2ccccc2)C1)c1ccccc1-c1ccccc1 (stereo not given)"
readout_value = "1.7 µM"

[[record]]
compound = "COc1ccccc1C(=O)OCC1CCCN(CCCc2ccccc2)C1 (stereo not given)"
readout_value = "3.2 µM"

[[record]]
compound = "O=C(OCC1CCCN(CCCc2ccccc2)C1)c1ccccc1C(F)(F)F (stereo not given)"
readout_value = "3.2 µM"

[[record]]
compound = "CC1CC(=O)N(c2ccccc2C(=O)OCC2CCCN(CCc3ccccc3)C2)C1=O (stereo not given)"
readout_value = "11.4 µM"

[[record]]
compound = "C=CCC1CC(=O)N(c2ccccc2C(=O)OCC2CCCN(CCCc3ccccc3)C2)C1=O (stereo not given)"
readout_value = "1.7 µM"


====

# Target System: Neuronal acetylcholine receptor subunit alpha-3 (Homo sapiens, UniProt P32297)
# Sequence (P32297 whole entry): as above
# Assay Comment: Inhibitory activity on nicotinic acetylcholine receptor alpha3
Measurement Kind: IC50

[[record]]
compound = "CC1CC(=O)N(c2ccccc2C(=O)OCC2CCCN(C(C)C)C2)C1=O (configuration not stated)"
target_system = "Neuronal acetylcholine receptor subunit alpha-3 (Homo sapiens, UniProt P32297)"
readout_value = "~20 µM"

[[record]]
compound = "CC(C)N1CCCC(COC(=O)c2ccccc2N2C(=O)CCC2=O)C1 (configuration not stated)"
target_system = "Neuronal acetylcholine receptor subunit alpha-3 (Homo sapiens, UniProt P32297)"
readout_value = "~20 µM"


====

# Target System: Neuronal acetylcholine receptor; alpha3/beta4 (Homo sapiens, UniProt P30926+P32297)
# Assay Comment: Effect on alpha3-beta4 neuronal nicotinic acetylcholine receptor-stimulated adrenal catecholamine secretion
# Format: functional
Could you please mark met for values of IC50 below 2000 nM and not met for values at or above it?

[[record]]
compound = "O=C(OCC1CCCN(CCCc2ccccc2)C1)c1ccccc1N1C(=O)c2ccccc2C1=O (stereo not given)"
cat = "met"

[[record]]
compound = "CC(=O)Nc1ccccc1C(=O)OCC1CCCN(CCCc2ccccc2)C1 (stereo not given)"
cat = "not met"

[[record]]
compound = "O=C(OCC1CCCN(CCCc2ccccc2)C1)c1ccccc1F (stereo not given)"
cat = "not met"

[[record]]
compound = "CCCCC1CC(=O)N(c2ccccc2C(=O)OCC2CCCN(CCCc3ccccc3)C2)C1=O (stereo not given)"
cat = "met"

[[record]]
compound = "O=C(OCC1CCCN(CCCc2ccccc2)C1)c1ccccc1N1C(=O)CC(C2CCCC2)C1=O (stereo not given)"
cat = "met"


All values here come from ChEMBL document CHEMBL1146803.
